Measured values drawn from ChEMBL document CHEMBL3994594 for this set.

Kindly supply the reported pIC50 values for the records listed here.
- Test system: RAW264.7
- Protocol Notes: Antiinflammatory activity in mouse RAW264.7 cells assessed as inhibition of LPS-stimulated nitric oxide production compound treated prior to LPS challenge by Griess assay
- Format: functional, cell-based
Recall that pIC50 is obtained by taking minus log10 of the concentration measured in molar.

Task item: I would be grateful if you could share the reported pIC50 for CO[C@H]1[C@@H](OC(=O)/C=C/[C@@H](O)[C@H](C)O)CC[C@@](O)(CCl)[C@@H]1[C@]1(C)O[C@H]1CC=C(C)C .
Reply: 4.71

Task item: I would be grateful if you could share the reported pIC50 for CO[C@H]1[C@@H](OC(=O)/C=C/[C@@H](O)[C@H](C)O)CC[C@@]2(CO2)[C@@H]1[C@@]1(C)O[C@H]1CC=C(C)C .
Reply: 4.69

Task item: I would be grateful if you could share the reported pIC50 for CC/C(O)=C/C=C(\O)C1=C(C)C(=O)[C@@]2(O1)C(=O)N[C@](OC)(C(=O)c1ccccc1)[C@H]2O .
Reply: 4.24

Task item: I would be grateful if you could share the reported pIC50 for N=C(NCCC[C@H](N)C(=O)O)N[N+](=O)[O-] .
Reply: 3.84

----------
- Protocol Notes: Antiangiogenic activity in CD34-positive human EPC assessed as inhibition of tube formation on matrigel after 24 hrs by inverted phase-contrast microscopy
- Type: functional, cell-based
Measurement Name: IC50

Task item: I would be grateful if you could share the reported IC50 for CC/C=C\[C@H](O)[C@H](O)C1=C(C)C(=O)[C@]2(O1)C(=O)N[C@](OC)(C(=O)c1ccccc1)[C@H]2O .
Reply: > 20 µM

Task item: I would be grateful if you could share the reported IC50 for CNC(=O)c1cc(Oc2ccc(NC(=O)Nc3ccc(Cl)c(C(F)(F)F)c3)cc2)ccn1 [SORAFENIB] .
Reply: 3.6 µM

Task item: I would be grateful if you could share the reported IC50 for CC/C=C\[C@H](O)[C@H](O)C1=C(C)C(=O)[C@]2(O1)C(=O)N[C@@](OC)(C(=O)c1ccccc1)[C@@H]2O [PSEUROTIN A] .
Reply: > 20 µM

Task item: I would be grateful if you could share the reported IC50 for CO[C@H]1[C@@H](OC(=O)/C=C/[C@H]2O[C@H]2C)CC[C@@]2(CO2)[C@@H]1[C@]1(C)O[C@H]1CC=C(C)C .
Reply: 17.8 µM

Task item: I would be grateful if you could share the reported IC50 for CC/C=C\[C@H](O)[C@H](O)C1=C(C)C(=O)[C@]2(O1)C(=O)N[C@@](OC)(C(=O)c1ccccc1)[C@H]2O .
Reply: > 20 µM

Task item: I would be grateful if you could share the reported IC50 for C=C1CC[C@H](OC(=O)/C=C/[C@@H](O)[C@H](C)O)[C@H](OC)[C@H]1[C@@]1(C)O[C@H]1CC=C(C)C .
Reply: 19.2 µM

Task item: I would be grateful if you could share the reported IC50 for CO[C@H]1[C@@H](OC(=O)/C=C/[C@@H](O)[C@H](C)O)CC[C@@](O)(CCl)[C@@H]1[C@]1(C)O[C@H]1CC=C(C)C .
Reply: 8.1 µM

Task item: I would be grateful if you could share the reported IC50 for CO[C@H]1[C@@H](OC(=O)/C=C/[C@H]2O[C@@H]2C)CC[C@@]2(O)CO[C@@](C)(C(O)CC=C(C)C)[C@H]12 (stereo partly specified) .
Reply: 16.2 µM

Task item: I would be grateful if you could share the reported IC50 for CO[C@H]1[C@@H](OC(=O)/C=C/[C@H]2O[C@H]2C)CC[C@@](O)(CCl)[C@@H]1[C@]1(C)O[C@H]1CC=C(C)C .
Reply: > 20 µM

Task item: I would be grateful if you could share the reported IC50 for CO[C@H]1[C@@H](OC(=O)/C=C/[C@@H](O)[C@H](C)O)CC[C@@]2(CO2)[C@@H]1[C@@]1(C)O[C@H]1CC=C(C)C .
Reply: 18.4 µM

Task item: I would be grateful if you could share the reported IC50 for CC/C(O)=C/C=C(\O)C1=C(C)C(=O)[C@@]2(O1)C(=O)N[C@](OC)(C(=O)c1ccccc1)[C@H]2O .
Reply: 16.7 µM
